These entries and their values trace back to patent US20260184663A1.

# Tested on: A549 (lung adenocarcinoma)
# ASSAY PROTOCOL: Antiproliferative activity (CCK-8 cell viability), A549
# Format: cell-based
# EXPERIMENTAL PARAMETERS: Homo sapiens, Compound concentration: 30 μM, 72 h, read-out: Antiproliferative activity in cancerous cells, A549
We begin with a simple list: items and their reported inhibition at 30 µM.
MEASUREMENT KIND: inhibition at 30 µM

INSERT INTO measurements (compound, target_or_test_system, value) VALUES
  ('C=CC1=C(CC(=O)O)c2ccccc2/C1=C\c1ccc(Oc2ccc(F)cc2)cc1 [C25]', 'A549 (lung adenocarcinoma)', '30 to 50%'),
  ('CC1=C(CC(=O)O)c2cc(Cl)ccc2/C1=C\c1ccc(COc2ccc(F)cc2)cc1 [B57]', 'A549 (lung adenocarcinoma)', '< 30%'),
  ('COc1ccc2c(c1)C(CC(=O)O)=C(C)/C2=C/c1ccc(Oc2ccc(Cl)cc2)cc1 [C72]', 'A549 (lung adenocarcinoma)', '30 to 50%'),
  ('CC1=C(CC(=O)NCCN2CCOCC2)c2cc(F)ccc2/C1=C\c1ccc(Oc2ccc(F)cc2)cc1 [C39]', 'A549 (lung adenocarcinoma)', '30 to 50%'),
  ('CC1=C(CC(=O)O)c2cc(F)ccc2/C1=C\c1ccc(Oc2ccc(F)c(Cl)c2)cc1 [C54]', 'A549 (lung adenocarcinoma)', '< 30%'),
  ('CC1=C(CC(=O)O)c2cc(Cl)ccc2/C1=C\c1ccc(Oc2ccc(F)cc2)cc1 [C63]', 'A549 (lung adenocarcinoma)', '30 to 50%'),
  ('COc1ccc(Oc2ccc(/C=C3/C(C)=C(CC(=O)O)c4cc(F)ccc43)cn2)cc1 [C35]', 'A549 (lung adenocarcinoma)', '30 to 50%'),
  ('CC1=C(CC(=O)O)c2cc(F)ccc2/C1=C\c1cccc(CNc2ccccc2)c1 [B14]', 'A549 (lung adenocarcinoma)', '30 to 50%');
